Numbers sourced from patent US9926282B2.

// reported IC50 for each item listed
target: ROCK1 (Homo sapiens (Human), UniProt Q13464); assay: ROCK assay (LABCHIP peptide phosphorylation), ROCK1; assay type: biochemical; settings: 5 μM ATP, 1.5 μM peptide substrate; read-out: ROCK1 IC50
Sequence (Q13464 whole entry, species assumed): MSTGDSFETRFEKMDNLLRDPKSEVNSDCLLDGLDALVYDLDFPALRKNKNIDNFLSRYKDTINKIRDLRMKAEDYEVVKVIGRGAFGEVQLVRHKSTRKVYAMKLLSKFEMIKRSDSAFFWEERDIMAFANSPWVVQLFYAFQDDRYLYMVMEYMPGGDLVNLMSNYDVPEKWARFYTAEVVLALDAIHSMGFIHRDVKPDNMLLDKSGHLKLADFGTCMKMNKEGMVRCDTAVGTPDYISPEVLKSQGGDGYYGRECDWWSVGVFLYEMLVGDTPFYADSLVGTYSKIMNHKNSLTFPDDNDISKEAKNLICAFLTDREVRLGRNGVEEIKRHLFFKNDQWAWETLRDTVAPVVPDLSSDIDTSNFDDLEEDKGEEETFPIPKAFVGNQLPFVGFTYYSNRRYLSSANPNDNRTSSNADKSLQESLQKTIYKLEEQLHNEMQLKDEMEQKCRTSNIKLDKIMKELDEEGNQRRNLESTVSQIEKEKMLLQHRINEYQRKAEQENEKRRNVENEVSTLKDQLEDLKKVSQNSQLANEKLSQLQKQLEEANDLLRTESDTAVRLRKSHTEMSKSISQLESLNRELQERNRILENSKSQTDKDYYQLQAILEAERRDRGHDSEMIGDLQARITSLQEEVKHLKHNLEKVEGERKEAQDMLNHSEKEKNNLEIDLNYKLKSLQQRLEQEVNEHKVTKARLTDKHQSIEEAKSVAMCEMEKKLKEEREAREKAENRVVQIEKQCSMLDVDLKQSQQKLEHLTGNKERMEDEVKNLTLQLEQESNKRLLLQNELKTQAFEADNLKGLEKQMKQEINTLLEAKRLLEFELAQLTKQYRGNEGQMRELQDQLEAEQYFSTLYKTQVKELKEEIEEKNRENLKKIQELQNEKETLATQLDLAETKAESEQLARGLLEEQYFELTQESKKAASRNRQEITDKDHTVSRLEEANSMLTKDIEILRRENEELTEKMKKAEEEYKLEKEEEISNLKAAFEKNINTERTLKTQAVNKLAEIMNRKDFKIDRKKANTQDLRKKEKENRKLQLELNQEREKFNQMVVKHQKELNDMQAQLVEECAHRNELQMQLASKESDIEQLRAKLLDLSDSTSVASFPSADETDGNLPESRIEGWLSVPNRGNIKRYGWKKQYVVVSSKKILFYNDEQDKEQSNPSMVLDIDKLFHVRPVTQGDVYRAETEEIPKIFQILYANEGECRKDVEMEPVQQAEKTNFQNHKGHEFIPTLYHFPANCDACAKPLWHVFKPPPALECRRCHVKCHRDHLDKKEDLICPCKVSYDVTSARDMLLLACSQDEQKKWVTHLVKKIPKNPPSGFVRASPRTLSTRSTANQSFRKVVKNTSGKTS

Please review the following examples before continuing.
chemical.string | tested.system | IC50
O=C(Nc1ccc(-c2n[nH]c(=O)c3ccccc23)cc1)c1n[nH]c2ncccc12 | ROCK1 (Homo sapiens (Human), UniProt Q13464) | 0.0001 to 0.1 µM
O=C(Nc1ccc(-c2n[nH]c(=O)c3ccccc23)cc1)c1nn(CC2CCN(CCCCO)CC2)c2ccccc12 | ROCK1 (Homo sapiens (Human), UniProt Q13464) | 0.0001 to 0.1 µM
Cn1nc(C(=O)Nc2ccc(-c3n[nH]c(=O)c4ccccc34)cc2)cc1C(C)(C)C | ROCK1 (Homo sapiens (Human), UniProt Q13464) | 0.0001 to 0.1 µM
Cc1cn2cc(C(=O)Nc3ccc(-c4n[nH]c(=O)c5ccccc45)cc3)nc2cn1 | ROCK1 (Homo sapiens (Human), UniProt Q13464) | 0.101 to 1 µM

# next molecule below
Query :: May I ask what IC50 has been recorded for `O=C(Cc1ccc(-c2n[nH]c(=O)c3ccccc23)cc1)NCC1CC1` ?
Result :: 1 to 50 µM
